target: T1, human condensin I pentamer, wild type (human, UniProt O95347 1-1197; Q9NTJ3 1-1288; Q15003 1-741; Q15021 1-1401; Q9BPX3 1-1015); test: fluorescence polarisation; 100 nM 5-FAM labelled peptide, protein or complex titrated; 20 mM HEPES pH 8, 150 mM KCl, 2.5 mM MgCl, 5% glycerol, 1 mM DTT; room temperature, 15 min; details: both partners purified
T1 construct: SMC2, human condensin I subunit; SMC4, human condensin I subunit; NCAPH, human condensin I kleisin subunit; NCAPD2, human condensin I HAWK subunit; NCAPG, human condensin I HAWK subunit; The complex carries a strep tag; also called CI; CIWT; source: Sf9 insect cells (baculovirus), co-expressed, purified (StrepTrap, heparin, SEC); copies: + + + +
No end group written: not given here. *: point of attachment. 5FAM = O=C1OC2(c3ccc(O)cc3Oc3cc(O)ccc32)c2ccc(C(=O)*)cc21
METRIC_NAME: Kd (µM)
Give bare numbers, in µM.

Kd for 5FAM-PGKKKKRALASNTSFFSGCSPIE (KIF4A, chromokinesin, residues 1206-1228 (C-terminal tail SLiM); also called 5-FAM-KIF4A(1206-1228); 5-FAM labelled KIF4A; source: synthetic peptide; bought: Genscript) [5-FAM-KIF4A WT(1206-1228) peptide] ?
17.7
